Measured Cyno CGRP Receptor/Blank Cells Specific Binding by item
tested-target: T1, cynomolgus monkey CGRP receptor (cynomolgus monkey, UniProt A0A2K5VQ71 34-472)
T1 construct: whole, on cells; Presented as detergent-solubilized lysate of HEK cells expressing the cynomolgus receptor; also called Cyno CGRP Receptor; Cynomolgus Monkey CGRP Receptor/HEK detergent-solubilized cell lysate
T1 sequence (A0A2K5VQ71 entry or part of it): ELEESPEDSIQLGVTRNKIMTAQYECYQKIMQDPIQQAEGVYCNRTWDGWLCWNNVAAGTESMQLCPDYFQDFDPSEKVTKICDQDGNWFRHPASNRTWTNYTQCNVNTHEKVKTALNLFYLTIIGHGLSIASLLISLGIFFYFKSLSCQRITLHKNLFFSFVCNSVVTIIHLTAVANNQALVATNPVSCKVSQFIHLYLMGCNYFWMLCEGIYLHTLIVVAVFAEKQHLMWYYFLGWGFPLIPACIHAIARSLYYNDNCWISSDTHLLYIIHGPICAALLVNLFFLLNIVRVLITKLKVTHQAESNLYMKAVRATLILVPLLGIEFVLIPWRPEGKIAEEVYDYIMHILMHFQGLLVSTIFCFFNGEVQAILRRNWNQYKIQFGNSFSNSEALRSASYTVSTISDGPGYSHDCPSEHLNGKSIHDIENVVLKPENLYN
assay-protocol: yeast-displayed Fab, FACS, detergent-solubilized lysate of cynomolgus CGRP receptor/HEK cells vs blank cells
observable: Cyno CGRP Receptor/Blank Cells Specific Binding

[
  {
    "binder": "anti-CGRP receptor variant 13, yeast-displayed Fab (Fab, V domains shown, also called Variant Ab ID 13) VH: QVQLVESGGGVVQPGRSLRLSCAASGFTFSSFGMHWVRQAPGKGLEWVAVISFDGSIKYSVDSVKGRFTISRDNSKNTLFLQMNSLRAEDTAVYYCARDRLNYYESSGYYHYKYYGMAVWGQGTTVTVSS VL: QSVLTQPPSVSAAPGQKVTISCSGSRSNIGRRTVSWYQQLPGTAPKLLIYDNNKRPSGIPDRFSGSKSGTSATLGITGLQTGDEADYYCGTWDSRLSAVVFGGGTKLTVLG",
    "value-measured": "4.8 ratio"
  },
  {
    "binder": "anti-CGRP receptor variant 07, yeast-displayed Fab (Fab, V domains shown, also called Variant Ab ID 07) VH: QVQLVESGGGVVQPGRSLRLSCAASGFYFMTYGMHWVRQAPGKGLEWVAVISFDGSIKYSVDSVKGRFTISRDNSKNTLFLQMNSLRAEDTAVYYCARDRLNYYESSGYYHYKYYGMAVWGQGTTVTVSS VL: QSVLTQPPSVSAAPGQKVTISCSGSSSNIGNNYVSWYQQLPGTAPKLLIYDNNKRPSGIPDRFSGSKSGTSATLGITGLQTGDEADYYCGTWDSRLSAVVFGGGTKLTVLG",
    "value-measured": "3.1 ratio"
  },
  {
    "binder": "anti-CGRP receptor variant 08, yeast-displayed Fab (Fab, V domains shown, also called Variant Ab ID 08) VH: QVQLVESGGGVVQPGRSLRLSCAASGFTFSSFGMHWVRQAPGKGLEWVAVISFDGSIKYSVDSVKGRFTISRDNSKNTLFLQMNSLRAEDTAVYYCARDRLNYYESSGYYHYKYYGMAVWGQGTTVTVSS VL: QSVLTQPPSVSAAPGQKVTISCSGSYSNIGWWPVSWYQQLPGTAPKLLIYDNNKRPSGIPDRFSGSKSGTSATLGITGLQTGDEADYYCGTWDSRLSAVVFGGGTKLTVLG",
    "value-measured": "4.9 ratio"
  }
]
